# Procedure Summary: Phase 1 first-in-human study, pharmacokinetics in plasma
# Particulars: cohort B, 4 mg PO at 0 and +10 hours
Listed compounds paired with reported AUCall, Max
Provide the reading as a plain figure in ng·h/mL.

Known results for compounds:
Compound | AUCall, Max, ng·h/mL
COCCC1CC2CN3C=Cc4c([nH]c5ccccc45)C(C(=O)OC)(C2)C13 (stereo not shown) | 1941
COCC[C@H]1CC2CN3CCc4c([nH]c5ccccc45)[C@](C(=O)OC)(C2)[C@H]13 | 400
COC(=O)C12CC3CC(CC(=O)O)C1N(CCc1c2[nH]c2ccccc12)C3 (stereo not shown) | 208

Shifting focus to the compound that follows.
// query AUCall, Max value for entry COC(=O)C12CC3CC(CCO)C1N(C=Cc1c2[nH]c2ccccc12)C3 (stereo not shown)
500

###

# Procedure Summary: Phase 1 first-in-human study, pharmacokinetics in plasma
# Particulars: both, human, plasma, po, 20 mg
Reported Metric: half-life (h)
Provide the reading as a plain figure in h.

Compound | Reported Metric | Reported
COC(=O)C12CC3CC(CC(=O)O)C1N(CCc1c2[nH]c2ccccc12)C3 (stereo not drawn) | half-life | 29.6
COCCC1CC2CN3C=Cc4c([nH]c5ccccc45)C(C(=O)OC)(C2)C13 (stereo not drawn) | half-life | 7.9

Shifting focus to the compound that follows.
// query half-life value for entry COC(=O)C12CC3CC(CCO)C1N(C=Cc1c2[nH]c2ccccc12)C3 (stereo not drawn)
14.4

###

# Assay Target: CYP2B6 (Homo sapiens, UniProt P20813)
# Sequence (P20813 whole entry): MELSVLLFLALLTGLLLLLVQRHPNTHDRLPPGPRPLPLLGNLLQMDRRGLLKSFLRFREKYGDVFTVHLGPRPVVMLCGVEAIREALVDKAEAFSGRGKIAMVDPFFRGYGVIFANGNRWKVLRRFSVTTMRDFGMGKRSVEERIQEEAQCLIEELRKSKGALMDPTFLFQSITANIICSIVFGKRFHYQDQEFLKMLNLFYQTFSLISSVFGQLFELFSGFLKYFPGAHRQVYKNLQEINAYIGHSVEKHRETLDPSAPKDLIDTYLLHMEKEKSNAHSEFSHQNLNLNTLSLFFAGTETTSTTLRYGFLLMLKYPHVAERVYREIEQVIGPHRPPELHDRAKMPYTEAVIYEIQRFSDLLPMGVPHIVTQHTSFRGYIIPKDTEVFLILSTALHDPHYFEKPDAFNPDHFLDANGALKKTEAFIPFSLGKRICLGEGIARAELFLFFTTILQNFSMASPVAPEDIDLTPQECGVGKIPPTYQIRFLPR
# Particulars: recombinant enzyme
Reported Metric: IC50

// query IC50 value for entry COCC[C@H]1CC2CN3CCc4c([nH]c5ccccc45)[C@](C(=O)OC)(C2)[C@H]13 [18-MC, 18-methoxycoronaridine]
> 100 µM

###

# Procedure Summary: Phase 1 first-in-human study, pharmacokinetics in plasma
# Particulars: cohort A, 20 mg PO single dose
Listed compounds paired with reported Half-Life, Min
Provide the reading as a plain figure in h.

Compound | Reported
COCC[C@H]1CC2CN3CCc4c([nH]c5ccccc45)[C@](C(=O)OC)(C2)[C@H]13 | 14.2

// query Half-Life, Min value for entry COC(=O)C12CC3CC(CC(=O)O)C1N(CCc1c2[nH]c2ccccc12)C3 (stereo not shown)
16.2

Please answer likewise for COCCC1CC2CN3C=Cc4c([nH]c5ccccc45)C(C(=O)OC)(C2)C13 (stereo not shown)
6.3

Please answer likewise for COC(=O)C12CC3CC(CCO)C1N(C=Cc1c2[nH]c2ccccc12)C3 (stereo not shown)
11.1

###

# Procedure Summary: Phase 1 first-in-human study, pharmacokinetics in plasma
# Particulars: cohort A, 20 mg PO single dose
Listed compounds paired with reported AUCall, Max
Provide the reading as a plain figure in ng·h/mL.

// query AUCall, Max value for entry COCCC1CC2CN3C=Cc4c([nH]c5ccccc45)C(C(=O)OC)(C2)C13 (stereo not shown)
3925

Please answer likewise for COCC[C@H]1CC2CN3CCc4c([nH]c5ccccc45)[C@](C(=O)OC)(C2)[C@H]13
447

Please answer likewise for COC(=O)C12CC3CC(CC(=O)O)C1N(CCc1c2[nH]c2ccccc12)C3 (stereo not shown)
359

Please answer likewise for COC(=O)C12CC3CC(CCO)C1N(C=Cc1c2[nH]c2ccccc12)C3 (stereo not shown)
684
